Target: T1, QP100 (cyno SIRPα (G7PGS8) ECD(E29-R368)-flag-his) (cynomolgus)
T1 construct: the construct carries flag and his tags; also called cynoSIRPα-flag-his; Cynomolgus SIRPα (QP100)
T1 chain: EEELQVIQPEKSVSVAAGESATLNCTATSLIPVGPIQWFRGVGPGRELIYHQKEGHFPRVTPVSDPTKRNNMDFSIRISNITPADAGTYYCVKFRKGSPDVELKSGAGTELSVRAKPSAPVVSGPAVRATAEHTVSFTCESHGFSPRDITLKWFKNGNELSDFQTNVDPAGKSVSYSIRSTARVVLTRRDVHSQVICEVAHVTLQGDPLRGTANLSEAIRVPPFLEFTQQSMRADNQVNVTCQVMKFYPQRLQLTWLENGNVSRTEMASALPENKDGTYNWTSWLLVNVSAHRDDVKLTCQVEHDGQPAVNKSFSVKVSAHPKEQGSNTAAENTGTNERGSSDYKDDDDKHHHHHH
Test: binding ELISA, antigen coated
metric-name: EC50 (ng/mL)
Entry rule: numbers only, all in ng/mL.

binder	numeric-result
QP256279 (antibody, human IgG4, V domains shown, Human IgG4 heavy constant region and kappa CL) VH: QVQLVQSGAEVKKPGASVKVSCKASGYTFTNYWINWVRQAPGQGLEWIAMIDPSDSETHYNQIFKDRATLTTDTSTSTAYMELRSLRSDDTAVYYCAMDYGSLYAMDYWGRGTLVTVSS VL: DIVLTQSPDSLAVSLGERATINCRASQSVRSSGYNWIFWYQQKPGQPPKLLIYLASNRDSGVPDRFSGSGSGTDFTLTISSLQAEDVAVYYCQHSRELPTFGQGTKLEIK	0.558

Now turn to the next binder.
GET /value?item= QP2561770 (antibody, human IgG4, V domains shown, Human IgG4 heavy constant region and kappa CL) VH: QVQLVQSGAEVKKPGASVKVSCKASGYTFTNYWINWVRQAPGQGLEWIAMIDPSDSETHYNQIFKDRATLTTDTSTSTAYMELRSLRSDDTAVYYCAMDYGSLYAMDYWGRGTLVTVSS VL: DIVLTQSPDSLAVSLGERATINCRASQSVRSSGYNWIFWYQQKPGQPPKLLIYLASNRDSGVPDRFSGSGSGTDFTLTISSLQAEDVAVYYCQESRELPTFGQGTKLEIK &field=EC50 returns 1.01
